These entries and their values trace back to patent US11339157B1.

- Tested on: Ba/F3-EGFR-insSVD cells
- experiment: Proliferation assay in BA/F3 (ins SVD) cells (Cell Titer-Glo)
- Assay type: cell-based
- test settings: Mus musculus, BaF3, Table 10, plated without EGF, 48 h
pIC50: −log10 of the molar value.
We use 7 as the dividing line for pIC50: on or above the line is Condition met, below is Condition not met.

Would you please look over these solved cases?
[[record]]
compound = "CC(C)(COc1cnccc1-c1[nH]c2c(c1Nc1cccc(F)c1OC(F)F)C(=O)NCC2)N1CCOCC1 [Example 76]"
qualitative_label = "Condition not met"

[[record]]
compound = "O=C1NCCc2[nH]c(-c3ccncc3OCCN3CCOCC3)c(Nc3cccc(Cl)c3OC(F)F)c21 [Example 81]"
qualitative_label = "Condition not met"

[[record]]
compound = "Cc1c(F)cccc1Nc1c(-c2ccncc2OC[C@@H]2CCCN2C)[nH]c2c1C(=O)NCC2 [Example 49]"
qualitative_label = "Condition met"

[[record]]
compound = "CC(C)(COc1cnccc1-c1[nH]c2c(c1Nc1cccc(F)c1)C(=O)NCC2)N1CCOCC1 [Example 7]"
qualitative_label = "Condition not met"

[[record]]
compound = "O=C1NCCc2[nH]c(-c3ccncc3OCc3ccccc3)c(Nc3cccc(F)c3)c21 [Example 3]"
qualitative_label = "Condition not met"

[[record]]
compound = "COc1c(F)cccc1Nc1c(-c2ccncc2OCCN2CCOCC2)[nH]c2c1C(=O)NCC2 [Example 84]"
qualitative_label = "Condition not met"

[[record]]
compound = "COc1c(Cl)cccc1Nc1c(-c2ccncc2OC[C@H]2CCCO2)[nH]c2c1C(=O)NCC2 [Example 67]"
qualitative_label = "Condition met"


Here's the next entry for you.
Exercise: Does the compound COc1c(Cl)cccc1Nc1c(-c2ccncc2OC[C@@H]2CCCO2)[nH]c2c1C(=O)NCC2 [Example 66] have recorded pIC50 that is 7 or more?
Solution: Condition met

---

- System: Ba/F3-EGFR-insSVD cells
- experiment: Proliferation assay in BA/F3 (ins SVD) cells (Cell Titer-Glo)
- Format: cell-based
- test settings: Mus musculus, BaF3, 48 h, Table 10, plated without EGF
property: log10 of IC50 (log10 of the value in nM)
Heads up: the numbers are on a log10 scale; they represent IC50 in nM.

[[record]]
compound_structure_string = "CC(C)(C)CCOc1cnccc1-c1[nH]c2c(c1Nc1cccc(F)c1)C(=O)NCC2"
target_system = "Ba/F3-EGFR-insSVD cells"
number = 0.83

[[record]]
compound_structure_string = "CC(C)(O)COc1cnccc1-c1[nH]c2c(c1Nc1cccc(F)c1OC(F)F)C(=O)NCC2"
target_system = "Ba/F3-EGFR-insSVD cells"
number = 2.62

[[record]]
compound_structure_string = "COC(C)(C)COc1cnccc1-c1[nH]c2c(c1Nc1cccc(Cl)c1C)C(=O)NCC2"
target_system = "Ba/F3-EGFR-insSVD cells"
number = 0.98

[[record]]
compound_structure_string = "COC(C)(C)COc1cnccc1-c1[nH]c2c(c1Nc1cc(F)ccc1C)C(=O)NCC2"
target_system = "Ba/F3-EGFR-insSVD cells"
number = 2.41


Would you mind giving log10 of IC50 for every compound in the list below?
1. CN1CCC[C@H]1COc1cnccc1-c1[nH]c2c(c1Nc1cccc(Cl)c1OC(F)F)C(=O)NCC2
2. COCCOc1cnccc1-c1[nH]c2c(c1Nc1cccc(Cl)c1OC)C(=O)NCC2
3. COC(C)(C)COc1cnccc1-c1[nH]c2c(c1Nc1cccc(F)c1OCC(F)F)C(=O)NCC2
4. COc1c(F)cccc1Nc1c(-c2ccncc2OCCOC(C)(C)C)[nH]c2c1C(=O)NCC2

Solution:
[1.78, 0.99, 2.70, 1.55]

Exercise: Fill in: log10 of IC50 of COc1c(F)cccc1Nc1c(-c2ccncc2OCC(C)(C)N(C)C)[nH]c2c1C(=O)NCC2 is ___
Solution: 1.99
